- Test system: Plasmodium falciparum
Overview of reported Km across a group of compounds:
Recorded metric: Km (µM)

> print(dat)
                                   compound  recorded.metric  measured.value
1                  Nc1nc2[nH]cnc2c(=O)[nH]1               Km             1.4
2  Sc1ncnc2nc[nH]c12 [MERCAPTOPURINE ANHYDROUS]               Km             1.6
3              O=c1[nH]c(=O)c2nc[nH]c2[nH]1               Km             420
